# Tested on: Streptococcus pyogenes EES61
# ASSAY REMARKS: in vitro antibacterial activity (MIC), agar dilution
# Assay type: cell-based
# RUN PARAMETERS: organism code LL; BHI agar, 35-37° C., 20 to 24 hours; unit assumed
MEASURED PROPERTY: MIC (µg/mL)
Give bare numbers, in µg/mL.

COMPOUND	MEASURED ON	RECORDED RESULT
CC[C@H]1OC(=O)[C@H](C)C(=O)[C@H](C)[C@@H](O[C@@H]2O[C@H](C)C[C@H](N(C)C)[C@H]2O)[C@](C)(OC/C=C/c2ccc(-c3nccs3)s2)C[C@@H](C)C(=O)[C@H](C)[C@H]2NC(=O)O[C@@]21C [Example 63]	Streptococcus pyogenes EES61	0.05
CC[C@H]1OC(=O)[C@H](C)C(=O)[C@H](C)[C@@H](O[C@@H]2O[C@H](C)C[C@H](N(C)C)[C@H]2O)[C@](C)(OCC#Cc2ccc(-c3cc4ccccc4s3)s2)C[C@@H](C)C(=O)[C@H](C)[C@H]2NC(=O)O[C@@]21C [Example 34]	Streptococcus pyogenes EES61	0.02

Asked: Value lookup for MIC; key = CC[C@H]1OC(=O)[C@H](C)C(=O)[C@H](C)[C@@H](O[C@@H]2O[C@H](C)C[C@H](N(C)C)[C@H]2O)[C@](C)(OC/C=C/c2ccc(-c3ccncn3)s2)C[C@@H](C)C(=O)[C@H](C)[C@H]2NC(=O)O[C@@]21C [Example 64]
Given back: 0.01

====

# Tested on: Streptococcus pyogenes PIU 2548
MEASURED PROPERTY: MIC (µg/mL)
Numbers only, in µg/mL.

Some molecules with known MIC results, for comparison:
MOLECULE	MEASURED ON	RECORDED RESULT
CC[C@H]1OC(=O)[C@H](C)C(=O)[C@H](C)[C@@H](O[C@@H]2O[C@H](C)C[C@H](N(C)C)[C@H]2O)[C@](C)(OC/C=C/c2ncc(-c3cccnc3)s2)C[C@@H](C)C(=O)[C@H](C)[C@H]2NC(=O)O[C@@]21C [Example 54]	Streptococcus pyogenes PIU 2548	0.1
CC[C@H]1OC(=O)[C@H](C)C(=O)[C@H](C)[C@@H](O[C@@H]2O[C@H](C)C[C@H](N(C)C)[C@H]2O)[C@](C)(OCC#Cc2ccc(-c3ncccn3)s2)C[C@@H](C)C(=O)[C@H](C)[C@H]2NC(=O)O[C@@]21C [Example 5]	Streptococcus pyogenes PIU 2548	0.1
CC[C@H]1OC(=O)[C@H](C)C(=O)[C@H](C)[C@@H](O[C@@H]2O[C@H](C)C[C@H](N(C)C)[C@H]2O)[C@](C)(OC/C=C/c2cncc(-c3ccccc3)c2)C[C@@H](C)C(=O)[C@H](C)[C@H]2NC(=O)O[C@@]21C [Example 42]	Streptococcus pyogenes PIU 2548	0.2

# evaluate next
Asked: Item under review: CC[C@H]1OC(=O)[C@H](C)C(=O)[C@H](C)[C@@H](O[C@@H]2O[C@H](C)C[C@H](N(C)C)[C@H]2O)[C@](C)(OC/C=C/c2ccc3ncc(Br)cc3c2)C[C@@H](C)C(=O)[C@H](C)[C@H]2NC(=O)O[C@@]21C [Example 38] . Reported MIC?
Given back: 0.2

====

A short record of MIC observed with Streptococcus Pneumonia 5649 follows.
Answers are plain numbers, in µg/mL.

SUBSTANCE SMILES	MIC [µg/mL]
CC[C@H]1OC(=O)[C@H](C)C(=O)[C@H](C)[C@@H](O[C@@H]2O[C@H](C)C[C@H](N(C)C)[C@H]2O)[C@](C)(OC/C=C/c2cncc(-n3ccnc3)c2)C[C@@H](C)C(=O)[C@H](C)[C@H]2NC(=O)O[C@@]21C	2
CC[C@H]1OC(=O)[C@H](C)C(=O)[C@H](C)[C@@H](O[C@@H]2O[C@H](C)C[C@H](N(C)C)[C@H]2O)[C@](C)(OCC#Cc2ccc(-c3cc(Cl)cc(Cl)c3)s2)C[C@@H](C)C(=O)[C@H](C)[C@H]2NC(=O)O[C@@]21C	1
CC[C@H]1OC(=O)[C@H](C)C(=O)[C@H](C)[C@@H](O[C@@H]2O[C@H](C)C[C@H](N(C)C)[C@H]2O)[C@](C)(OCC#Cc2ccc(-c3cccc(F)c3)s2)C[C@@H](C)C(=O)[C@H](C)[C@H]2NC(=O)O[C@@]21C	0.25

Fill in MIC for each of the 4 compounds listed.
1. CC[C@H]1OC(=O)[C@H](C)C(=O)[C@H](C)[C@@H](O[C@@H]2O[C@H](C)C[C@H](N(C)C)[C@H]2O)[C@](C)(OC/C=C/c2ccc(-c3nccs3)s2)C[C@@H](C)C(=O)[C@H](C)[C@H]2NC(=O)O[C@@]21C
2. CC[C@H]1OC(=O)[C@H](C)C(=O)[C@H](C)[C@@H](O[C@@H]2O[C@H](C)C[C@H](N(C)C)[C@H]2O)[C@](C)(OC/C=C/c2cnc(-c3ncc(Br)s3)s2)C[C@@H](C)C(=O)[C@H](C)[C@H]2NC(=O)O[C@@]21C
3. CC[C@H]1OC(=O)[C@H](C)C(=O)[C@H](C)[C@@H](O[C@@H]2O[C@H](C)C[C@H](N(C)C)[C@H]2O)[C@](C)(OC/C=C/c2cnc(-c3cccs3)s2)C[C@@H](C)C(=O)[C@H](C)[C@H]2NC(=O)O[C@@]21C
4. CC[C@H]1OC(=O)[C@H](C)C(=O)[C@H](C)[C@@H](O[C@@H]2O[C@H](C)C[C@H](N(C)C)[C@H]2O)[C@](C)(OC/C=C/c2nc(-c3cccnc3)cs2)C[C@@H](C)C(=O)[C@H](C)[C@H]2NC(=O)O[C@@]21C

Given back:
1: 0.25; 2: 0.25; 3: 0.25; 4: 0.25

Asked: Could you tell me which MIC is on file for CC[C@H]1OC(=O)[C@H](C)C(=O)[C@H](C)[C@@H](O[C@@H]2O[C@H](C)C[C@H](N(C)C)[C@H]2O)[C@](C)(OC/C=C/c2cncc(-c3ccsc3)c2)C[C@@H](C)C(=O)[C@H](C)[C@H]2NC(=O)O[C@@]21C ?
Given back: 0.03
